Kindly supply the reported abundance fitness values for the records listed here.
B1: Unconventional myosin-Ie, residues 1051 to 1108; numbered along this chain, Q12965 (parent)
chain: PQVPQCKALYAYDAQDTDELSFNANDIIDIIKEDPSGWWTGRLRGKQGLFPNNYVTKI

Variants of: B1
Assay Details: abundance fitness (aPCA) (normalised: wild type 0, dead -1); higher = more abundant; growth selection in yeast, the domain comes from the species named
Stated Conditions: Homo sapiens
Give bare numbers.

Here are 10 variants together with their reported answers.
# Sequence Code, Test Value
measured = [
    ("PQVPQCKALYAYDAQDTDELSFNANDIIDIIKEDPSGWWTGRLRGKQLLFPNNYVTKI [G48L]", -0.399),
    ("PQVPQCKALYAYDAQDTDELSFNANDIIDLIKEDPSGWWTGRLRGKQGLFPNNYVTKI [I30L]", -0.077),
    ("PQVPQCLALYAYDAQDTDELSFNANDIIDIIKEDPSGWWTGRLRGKQGLFPNNYVTKI [K7L]", -0.106),
    ("PQVPQCKALYAYDAQDTDELSFNANDIIDIIKEDPGGWWTGRLRGKQGLFPNNYVTKI [S36G]", -0.031),
    ("PQVPQCKALYAYDAQDTDELSFNANDIIDIIKEDPSGWITGRLRGKQGLFPNNYVTKI [W39I]", -0.179),
    ("PQVPQCKGLYAYDAQDTDELSFNANDIIDIIKEDPSGWWTGRLRGKQGLFPNNYVTKI [A8G]", -0.748),
    ("PQVPQCKALYAYDAQDTDELSFNANDIIDIILEDPSGWWTGRLRGKQGLFPNNYVTKI [K32L]", -0.122),
    ("PQVPQCKAAYAYDAQDTDELSFNANDIIDIIKEDPSGWWTGRLRGKQGLFPNNYVTKI [L9A]", -0.315),
    ("PQVPQCKALYAYDAQDTDELSFNANDIIDIWKEDPSGWWTGRLRGKQGLFPNNYVTKI [I31W]", -0.479),
    ("PQVPQCKALYAYDAQDTDELSFNANDIIDIIKEDPSGWWTGRLVGKQGLFPNNYVTKI [R44V]", -0.19),
]

Record abundance fitness per entry; entries follow.
1. PQVPQCKALYAYDAQDTDELSFNFNDIIDIIKEDPSGWWTGRLRGKQGLFPNNYVTKI [A24F]
2. PQVPQCKPLYAYDAQDTDELSFNANDIIDIIKEDPSGWWTGRLRGKQGLFPNNYVTKI [A8P]

1: -0.106; 2: -0.732

Record abundance fitness per entry; entries follow.
1. PQVPQCKALYAYDAQDTDELSFNANDIIDIIKEDPSGWWTGRLRGKFGLFPNNYVTKI [Q47F]
2. PQVPQCKALYAYDAQDTDELSFNANDIIDIIKEDPSGWWTGRLRGWQGLFPNNYVTKI [K46W]
3. PQVPQCKALYAYDAQDTDELSFNANDIIDIIKEDPSGWWTGRLRGKQGLMPNNYVTKI [F50M]
4. PQVPQCKALYAYDAQDTDEPSFNANDIIDIIKEDPSGWWTGRLRGKQGLFPNNYVTKI [L20P]
5. PQVPQCKALYAYDAQDTDELSFNADDIIDIIKEDPSGWWTGRLRGKQGLFPNNYVTKI [N25D]
6. PQVPQCKALYAYDAQVTDELSFNANDIIDIIKEDPSGWWTGRLRGKQGLFPNNYVTKI [D16V]

1: -0.167; 2: -0.569; 3: -0.31; 4: -1.11; 5: -0.048; 6: -0.169

Record abundance fitness per entry; entries follow.
1. PQVPQCKALYAYDANDTDELSFNANDIIDIIKEDPSGWWTGRLRGKQGLFPNNYVTKI [Q15N]
2. PQVPQCKALYAYDAQDTDELSFNANDIIDIIKEDPSGWWTQRLRGKQGLFPNNYVTKI [G41Q]
3. PQVPQCKALYAYDAQDTDELSFNANDIIDIIKEDPSGWWTGRLRMKQGLFPNNYVTKI [G45M]
4. PQVPQCKALYAYDAQDTDELSFNANDIIDIIKEDPSGWWTGRLRGKQGEFPNNYVTKI [L49E]

[0.037, -0.767, -0.161, -0.242]
